test system: SF-539 CNS; experiment: NCI-60 one-dose screen, 48 h (100 = growth as untreated, 0 = no growth, -100 = all killed); conditions: 10 µM unless noted
The panel holds about 83,000 compounds, 20% with a hit somewhere; the sample as a whole holds those more often.

>  <compound>
CCNc1ccc(-c2nc3ccccc3n3cccc23)cc1

>  <growth / %>
93.5

$$$$
>  <compound>
Cc1[nH]c(C2CC(c3ccc(C(F)(F)F)c(F)c3)=NN2c2ccccc2)c(C)c1C(=O)NCC(F)(F)F (stereo not drawn)

>  <growth / %>
94.4

$$$$
>  <compound>
C=CCOC(=O)C1=C(C)N(CC)C(=O)NC1c1c(Cl)n(C)c2ccccc12 (stereo not drawn)

>  <growth / %>
98.4

$$$$

This collection of values is drawn from PubChem BioAssay (NCI).
